All figures here come from patent US20240279318A1.

# System tested: T1, AFP158/HLA-A*02:01 complex (human)
# T1 construct: flowed as analyte in SPR
# Test summary: SPR, crude scFv captured, pMHC analyte;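 further: complex injected at several concentrations over the chip, association phase then running buffer for dissociation, KD derived from on- and off-rates computed from both curves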
Entries whose koff is below 0.0008 s⁻¹ take Y; entries at or above 0.0008 s⁻¹ take N.

[
  {
    "Binder": "AS170036 VL1VH1-57H98Q108A (scFv, also called 64-AS170036 VL1VH1-57H98Q108A) scFv: QSALTQPRSVSGSPGQSVTISCAGTSSDVGSENYVSWYQQHPGKAPKLMIYQVNKRASGVPDRFSGSKSGNTASLTISGLQAEDEADYYCASYRSSDQNIVFGGGTKLTVLGGGGSGGGGSGGGGSEVQLVESGGGLVQPGGSLRLSCAASGFTFSSYAMSWVRQAPGKGLEWVSTINSGTGHPYYADSVKGRFTISRDNSKNTLYLQMNSLRAEDTAVYYCAKNFFDGSWFLAPPAMDYWGQGTLVTVSSHHHHHH",
    "Class label": "Y"
  },
  {
    "Binder": "AS170036 VL1VH1-56N98Q108A (scFv, also called 55-AS170036 VL1VH1-56N98Q108A) scFv: QSALTQPRSVSGSPGQSVTISCAGTSSDVGSENYVSWYQQHPGKAPKLMIYQVNKRASGVPDRFSGSKSGNTASLTISGLQAEDEADYYCASYRSSDQNIVFGGGTKLTVLGGGGSGGGGSGGGGSEVQLVESGGGLVQPGGSLRLSCAASGFTFSSYAMSWVRQAPGKGLEWVSTINSGTNSPYYADSVKGRFTISRDNSKNTLYLQMNSLRAEDTAVYYCAKNFFDGSWFLAPPAMDYWGQGTLVTVSSHHHHHH",
    "Class label": "N"
  },
  {
    "Binder": "AS170036 VL1VH1-56Y98F108A (scFv, also called 40-AS170036 VL1VH1-56Y98F108A) scFv: QSALTQPRSVSGSPGQSVTISCAGTSSDVGSENYVSWYQQHPGKAPKLMIYQVNKRASGVPDRFSGSKSGNTASLTISGLQAEDEADYYCASYRSSDFNIVFGGGTKLTVLGGGGSGGGGSGGGGSEVQLVESGGGLVQPGGSLRLSCAASGFTFSSYAMSWVRQAPGKGLEWVSTINSGTYSPYYADSVKGRFTISRDNSKNTLYLQMNSLRAEDTAVYYCAKNFFDGSWFLAPPAMDYWGQGTLVTVSSHHHHHH",
    "Class label": "Y"
  },
  {
    "Binder": "AS170036 VL1VH1-57H98Q108S (scFv, also called 66-AS170036 VL1VH1-57H98Q108S) scFv: QSALTQPRSVSGSPGQSVTISCAGTSSDVGSENYVSWYQQHPGKAPKLMIYQVNKRASGVPDRFSGSKSGNTASLTISGLQAEDEADYYCASYRSSDQNIVFGGGTKLTVLGGGGSGGGGSGGGGSEVQLVESGGGLVQPGGSLRLSCAASGFTFSSYAMSWVRQAPGKGLEWVSTINSGTGHPYYADSVKGRFTISRDNSKNTLYLQMNSLRAEDTAVYYCAKNFFDGSWFLSPPAMDYWGQGTLVTVSSHHHHHH",
    "Class label": "Y"
  },
  {
    "Binder": "AS170036 VL1VH1-57H98I108A (scFv, also called 61-AS170036 VL1VH1-57H98I108A) scFv: QSALTQPRSVSGSPGQSVTISCAGTSSDVGSENYVSWYQQHPGKAPKLMIYQVNKRASGVPDRFSGSKSGNTASLTISGLQAEDEADYYCASYRSSDINIVFGGGTKLTVLGGGGSGGGGSGGGGSEVQLVESGGGLVQPGGSLRLSCAASGFTFSSYAMSWVRQAPGKGLEWVSTINSGTGHPYYADSVKGRFTISRDNSKNTLYLQMNSLRAEDTAVYYCAKNFFDGSWFLAPPAMDYWGQGTLVTVSSHHHHHH",
    "Class label": "Y"
  }
]

# input Lab note: confirm whether the reported koff for this binder is below 0.0008 s⁻¹, equality not counting. binder: AS170036 VL1VH1-57M98I108D (scFv, also called 80-AS170036 VL1VH1-57M98I108D) scFv: QSALTQPRSVSGSPGQSVTISCAGTSSDVGSENYVSWYQQHPGKAPKLMIYQVNKRASGVPDRFSGSKSGNTASLTISGLQAEDEADYYCASYRSSDINIVFGGGTKLTVLGGGGSGGGGSGGGGSEVQLVESGGGLVQPGGSLRLSCAASGFTFSSYAMSWVRQAPGKGLEWVSTINSGTGMPYYADSVKGRFTISRDNSKNTLYLQMNSLRAEDTAVYYCAKNFFDGSWFLDPPAMDYWGQGTLVTVSSHHHHHH
# output N

# input Lab note: confirm whether the reported koff for this binder is below 0.0008 s⁻¹, equality not counting. binder: AS170036 VL1VH1-57M98I108S (scFv, also called 81-AS170036 VL1VH1-57M98I108S) scFv: QSALTQPRSVSGSPGQSVTISCAGTSSDVGSENYVSWYQQHPGKAPKLMIYQVNKRASGVPDRFSGSKSGNTASLTISGLQAEDEADYYCASYRSSDINIVFGGGTKLTVLGGGGSGGGGSGGGGSEVQLVESGGGLVQPGGSLRLSCAASGFTFSSYAMSWVRQAPGKGLEWVSTINSGTGMPYYADSVKGRFTISRDNSKNTLYLQMNSLRAEDTAVYYCAKNFFDGSWFLSPPAMDYWGQGTLVTVSSHHHHHH
# output N

# input Lab note: confirm whether the reported koff for this binder is below 0.0008 s⁻¹, equality not counting. binder: AS170036 VL1VH1-57M98F108A (scFv, also called 76-AS170036 VL1VH1-57M98F108A) scFv: QSALTQPRSVSGSPGQSVTISCAGTSSDVGSENYVSWYQQHPGKAPKLMIYQVNKRASGVPDRFSGSKSGNTASLTISGLQAEDEADYYCASYRSSDFNIVFGGGTKLTVLGGGGSGGGGSGGGGSEVQLVESGGGLVQPGGSLRLSCAASGFTFSSYAMSWVRQAPGKGLEWVSTINSGTGMPYYADSVKGRFTISRDNSKNTLYLQMNSLRAEDTAVYYCAKNFFDGSWFLAPPAMDYWGQGTLVTVSSHHHHHH
# output N
